target: T1, His-tagged cynomolgus monkey CD38 (ACRO Biosystems cat #CD8-05223) (cynomolgus monkey, UniProt Q5VAN0 43-301)
T1 construct: bought recombinant protein with His tag
experimentalDetails: ELISA, coated His-CD38
reportedProperty: ELISA 1 ug/ml

>  <binder>
40566p1.A7 (scFv, V domains shown, tested as scFv-Fc supernatant) VH: RELVESGGGVVRPGESLRLSCAASGFTFDNYDMTWVRQAPGEGLEWVSFISSRGTFTYYTDSVRGRFTISRDNSKNTLYLEMNSLRAEDTAIYYCAKDSGEYYFFDYWGLGTLVTVSS VL: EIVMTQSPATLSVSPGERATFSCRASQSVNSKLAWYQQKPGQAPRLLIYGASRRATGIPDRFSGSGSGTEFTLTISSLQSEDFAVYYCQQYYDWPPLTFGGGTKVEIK

>  <reportedProperty>
ELISA 1 ug/ml

>  <measuredNumber>
1.85

$$$$
